# TEST_TARGET: T1, OX40-his (Homo sapiens (Human), UniProt P43489 29-214, limits assumed)
# T1 construct: Analyte of the Biacore 8K assay; also called Ag OX40-his; Antigen OX40-his; not shown: His tag
# T1 sequence: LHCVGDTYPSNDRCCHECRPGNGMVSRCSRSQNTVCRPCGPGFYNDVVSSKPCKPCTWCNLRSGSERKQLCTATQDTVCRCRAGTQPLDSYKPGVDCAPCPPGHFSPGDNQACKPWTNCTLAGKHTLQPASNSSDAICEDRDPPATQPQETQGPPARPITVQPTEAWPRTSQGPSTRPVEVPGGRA
# ASSAY_METHOD_TEXT: SPR Biacore (summary table; repeats Table 6)
REPORTED_PROPERTY: pKd
Keep it numeric: pKd is minus log10 of the concentration in mol/L.

Answered examples (3):
1. murine-human chimeric antibody derived from murine antibody A6 (chimeric IgG) (antibody, V domains shown, also called chimeric OX40 Ab) VH: EVQLQQSGPELVKPGASVKMSCKASGYTFTSYVMHWVKQKPGQGLEWIGYINPYNDGTKYNEKFKGKATLTSDKSSSTAYMELSSLTSEDSAVYYCANYYGSNYAMDYWGQGTSVTVSS VL: DIQMTQTTSSLSASLGDRVTISCRASQDIRNYLNWYQQKPDGTVKLLIYYTSRLHSGVPSRFSGSGSGTDYSLTISNLEQEDIATYFCQQGNTLPWTFGGGTKLEIKR    8.04
2. humanized Ab REMD 277.2 (VH2-1/VL5BM) (antibody, human IgG1, kappa, V domains shown) VH: EVQLVQSGAEVKKPGESLKISCKGSGYTFTSYVMHWVRQMPGKGLEWMGYINPYNDGTKYNEKFKGQVTISADKSISTAYLQWSSLKASDTAMYYCARYYGSNYAMDYWGQGTMVTVSS VL: DIQMTQSPSSLSASVGDRVTISCRASQDIRNYLNWYQQKPGKTVKLLIYYTSRLHSGVPSRFSGSGSGTDYTFTISSLQPEDIATYFCQQGNTLPWTFGGGTKLEIKR    8.23
3. humanized Ab REMD 277 (VH2-1/VL2-2) (antibody, human IgG1, kappa, V domains shown) VH: EVQLVQSGAEVKKPGESLKISCKGSGYTFTSYVMHWVRQMPGKGLEWMGYINPYNDGTKYNEKFKGQVTISADKSISTAYLQWSSLKASDTAMYYCARYYGSNYAMDYWGQGTMVTVSS VL: EIVMTQSPATLSASPGERVTLSCRASQDIRNYLNWYQQKPGGAVRLLIYYTSRLHSGVPARFSGSGSGTDYTLTISSLEPEDYAVYFCQQGNTLPWTFGQGTKVEIKR    8.20

Consider now this further binder.
Which pKd is listed for humanized Ab REMD 277.1 (VH2-1/VL2-1) (antibody, human IgG1, kappa, V domains shown) VH: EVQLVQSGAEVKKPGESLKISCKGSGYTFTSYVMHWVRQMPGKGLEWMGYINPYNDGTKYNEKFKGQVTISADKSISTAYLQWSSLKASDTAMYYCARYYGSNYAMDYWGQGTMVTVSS VL: EIVLTQSPATLSLSPGERATLSCRASQDIRNYLNWYQQKPGQAPRLLIYYTSRLHSGIPARFSGSGSGTDFTLTISSLEPEDFAVYYCQQGNTLPWTFGQGTKVEIKR ?
7.86

FYI, the data here is from patent US20210024640A1.
